I'd be grateful if you could share measured EC50 for these entries.
- experimental target: T1, cynomolgus monkey ST2 antigen (Cyno-ST2-his, Sino biological, 90915-C08H) (cynomolgus monkey, UniProt Q01638 19-328 (human entry))
- T1 construct: Bought protein; not shown: his tag
- T1 chain: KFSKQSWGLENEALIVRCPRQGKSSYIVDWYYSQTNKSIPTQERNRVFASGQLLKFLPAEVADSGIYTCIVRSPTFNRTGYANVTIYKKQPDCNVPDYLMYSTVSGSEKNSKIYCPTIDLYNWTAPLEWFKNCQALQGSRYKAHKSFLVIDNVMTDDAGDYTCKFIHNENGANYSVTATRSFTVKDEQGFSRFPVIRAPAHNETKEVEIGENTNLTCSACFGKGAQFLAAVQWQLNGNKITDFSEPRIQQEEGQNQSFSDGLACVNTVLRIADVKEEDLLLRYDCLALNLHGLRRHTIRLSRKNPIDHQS
- assay procedure: ELISA, plate coated with Cyno-ST2-his
- Protocol: ST2 binding screening and analysis of antibodies were performed by ELISA using hST2-ECD-mFc (for assays of chimeric and humanized antibodies), hST2-ECD-hFc protein (for assays of hybridoma antibodies) and Cyno-ST2-his (Sino biological, 90915-C08H) as antigens. […] Colorimetric signals were generated and read at 450 nm using a microplate reader (PE, Envision). The data were analyzed using GraphPad Prism5, and the EC₅₀ values were calculated.
Give the number; nM is assumed, so skip it.

Q: Requested field: EC50. Item: Chimeric 7D1 (antibody, human IgG2, kappa, V domains shown, also called xi7D1) VH: QVQLQQSGAELVRPGASVTLSCKASGYTFTDYEMHWVKQTPVHGLDWIGTIDPETGDTAYNQKFKGRATLTADKSSSTAYMELSSLTSEDSAVYYCTRYSYTNSPYGMDYWGQGTSVTVSS VL: DVVMTQTPKFLLVSAGDRVTITCKASQSVSNDVAWYQQKPGQSPKLLIYYASNRYTGVPDRFTGSGYGTDFTFTINTVQAEDLAVYFCQQDYSSPYTFGGGTKLEIKR
A: 0.191

Q: State the recorded EC50 for this entry: Chimeric 17E2 (antibody, human IgG2, kappa, V domains shown, also called xi17E2) VH: QVQLQQSGAELVRPGASVTLSCKASGYTFTDYEMHWVKQTPVLGLEWIGAIDPETGDTAYNQKFKGKATLTADKSSSTAYMELSSLASEDSAVYYCIRVDSNYDYFDYWGQDTTLTVSS VL: DIVLTQSPPILSASPGEKVTMTCRASSSVSYMHWYQQKPGSSPKPWIYDTSNLASGVPARFSGSGSGTSYSLTISRVEAEDAATYYCQQWSSNPLTFGAGTKLELKR
A: 0.22

Q: Item under review: Chimeric 8F4 (antibody, human IgG2, kappa, V domains shown, also called xi8F4) VH: QVQLQQSGAELVRPGASVTLSCKASGHIFTDYEMQWVKQTPVHGLEWIGAFDPETGDTAYNQKFKGKATLTADKSSSTAYMELSSLTSEDSAVYYCSGSTTDYYFAYWGQGTSLTVSS VL: DVVMTQTAFSNPVTLGTSASISCRSSKSLLHSNGIIYLYWYLQKPGQSPQLLIYQMSNLASGVPDRFSSSGSGTDFTLRISRVEAEDVGVYYCAQNLELPFTFGSGTKLEIKR . Reported EC50?
A: 0.164
